Attribution: patent US20260345555A1

system: Reduced glutathione in salivary gland cell clusters (SGm); test: Glutathione assay in salivary gland tissue chip, 4 days post-radiation (15 Gy); also first screen of Selleck library at 100 μM; type: cell-based, mouse; details: first screen of Selleck library at 100 μM, 15 Gy, 4 days post-radiation
Counter-ions that a name gives are not always drawn.
Measured endpoint: Glutathione normalized mean intensity
Just the number, please, no unit after it.

# Compound, Target or test system, Glutathione normalized mean intensity
measured = [
    ("CN1[C@@H]2CC[C@H]1C[C@@H](OC(=O)c1c[nH]c3ccccc13)C2 [Tropisetron]", "Reduced glutathione in salivary gland cell clusters (SGm)", 0.5993),
    ("CC[C@H]1OC(=O)[C@H](C)[C@@H](O[C@H]2C[C@@](C)(OC)[C@@H](O)[C@H](C)O2)[C@H](C)[C@@H](O[C@@H]2O[C@H](C)C[C@H](N(C)C)[C@H]2O)[C@](C)(O)C[C@@H](C)CN(C)[C@H](C)[C@@H](O)[C@]1(C)O [Azithromycin (Zithromax)]", "Reduced glutathione in salivary gland cell clusters (SGm)", 0.8765),
    ("C[C@@H]1CN(c2c(F)c(N)c3c(=O)c(C(=O)O)cn(C4CC4)c3c2F)C[C@H](C)N1 [Sparfloxacin]", "Reduced glutathione in salivary gland cell clusters (SGm)", 0.7607),
    ("COCCc1ccc(OCC(O)CNC(C)C)cc1 (stereo not drawn) [Metoprolol tartrate]", "Reduced glutathione in salivary gland cell clusters (SGm)", 0.829),
    ("O=C(CCCN1CCC(O)(c2ccc(Cl)cc2)CC1)c1ccc(F)cc1 [Haloperidol (Haldol)]", "Reduced glutathione in salivary gland cell clusters (SGm)", 0.6675),
]

Req: Can you share its Glutathione normalized mean intensity? I mean this compound: Cc1c(Cl)cccc1Nc1ccccc1C(=O)O [Tolfenamic acid]
Resp: 0.8008

Req: Can you share its Glutathione normalized mean intensity? I mean this compound: CC(=O)OCC[N+](C)(C)C.[Cl-] [Acetylcholine chloride]
Resp: 1.04

Req: For the compound shown here, COC(=O)C1=C(C)NC(C)=C(C(=O)OC)C1c1ccccc1[N+](=O)[O-] [Nifedipine (Adalat)] , give the reported Glutathione normalized mean intensity.
Resp: 0.9216

Req: Query: Glutathione normalized mean intensity; subject: CC(O)(P(=O)(O)O)P(=O)(O)O [Etidronate (Didronel)]
Resp: 0.9486

Req: Could you tell me which Glutathione normalized mean intensity is on file for C[C@H]1COc2c(N3CCN(C)CC3)c(F)cc3c(=O)c(C(=O)O)cn1c23 [Levofloxacin (Levaquin)] ?
Resp: 0.6541

Req: Which measured Glutathione normalized mean intensity value corresponds to O=NN(CCCl)C(=O)NC1CCCCC1 [Lomustine (CeeNU)] ?
Resp: 0.9042

Req: Request the reported Glutathione normalized mean intensity associated with CC/C(=C(/CC)c1ccc(O)cc1)c1ccc(O)cc1 [Diethylstilbestrol (Stilbestrol)]
Resp: 0.8894
